Ref: patent US4051253A

Assign LD50 to each entry below.
# method: in vivo
# measurement parameters: mouse

| compound | LD50 |
| --- | --- |
| CCc1ccccc1C(=O)NN=CC=Cc1ccc([N+](=O)[O-])o1 | > 2000 mg/kg |
| Cc1ncc([N+](=O)[O-])n1CCO [Metronidazol, reference compound] | > 2000 mg/kg |

Lookup: Name the reported LD50 value associated with the compound `Cc1ccccc1C(=O)NN=CC=Cc1ccc([N+](=O)[O-])o1`
Found: > 2000 mg/kg
